Experiment: Oral bioavailability in rat at 1 mg/kg
Format: ADME, organism-based
Conditions: in vivo
Recorded bioavailability for the following compounds

- compound-structure: "C[C@@H](CO)NS(=O)(=O)c1ccc(-c2ccnc3[nH]c(C(F)(F)F)cc23)cc1"
  observed-result: "83%"
- compound-structure: "Cc1cc2c(-c3ccc(S(=O)(=O)NCC(C)(C)O)cc3)ccnc2[nH]1"
  observed-result: "32%"
- compound-structure: "C[C@@H](CO)NS(=O)(=O)c1ccc(-c2ccnc3[nH]c(C4CC4)cc23)cc1"
  observed-result: "29%"
- compound-structure: "CC(C)(O)CNS(=O)(=O)c1ccc(-c2ccnc3[nH]c(C4CC4)cc23)cc1"
  observed-result: "100%"
- compound-structure: "CC(C)c1cc2c(-c3ccc(S(=O)(=O)NCCO)cc3)ccnc2[nH]1"
  observed-result: "18%"

Please give the measured bioavailability for this compound: O=S(=O)(NCCO)c1ccc(-c2ccnc3[nH]c(C4CC4)cc23)cc1
49%
